# target system: human recombinant adrenergic α2B receptor (Homo sapiens, UniProt P18089)
# Construct: expressed in transfected cells; host or cells: CHO-K1
# Sequence (P18089 whole entry): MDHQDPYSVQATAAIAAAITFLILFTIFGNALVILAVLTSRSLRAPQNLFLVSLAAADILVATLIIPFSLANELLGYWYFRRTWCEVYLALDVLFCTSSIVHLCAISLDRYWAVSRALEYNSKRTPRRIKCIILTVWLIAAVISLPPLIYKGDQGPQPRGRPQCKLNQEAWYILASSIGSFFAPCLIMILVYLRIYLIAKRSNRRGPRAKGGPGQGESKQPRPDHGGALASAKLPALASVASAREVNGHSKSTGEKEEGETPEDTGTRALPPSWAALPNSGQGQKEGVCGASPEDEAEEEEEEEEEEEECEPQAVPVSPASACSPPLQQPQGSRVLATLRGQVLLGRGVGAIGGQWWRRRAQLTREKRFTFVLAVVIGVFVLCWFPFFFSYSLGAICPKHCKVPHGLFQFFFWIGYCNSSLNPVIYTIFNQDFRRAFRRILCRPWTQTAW
# experiment: Radioligand binding, adrenergic α2B ([3H]Rauwolscine)
# condition label: compound at 0.1 μM; [3H]Rauwolscine; repeat datapoints each shown; 0.1 µM
property label: Percentage inhibition of ligand binding, Adrenergic α2B (0.1 μM) (%)
Please respond with the number in % and leave the unit unwritten.

Worked cases, Percentage inhibition of ligand binding, Adrenergic α2B (0.1 μM) given:
1) Cc1ccc2c(c1)c1c(n2C2=C(c3ccc(C)s3)CCC2)CCN(C)C1
99
2) Cc1ccc2c(c1)c1c(n2CC(O)c2ccc(C(N)=O)nc2)CCN(C)C1 (single isomer, unassigned) [144b]
102
3) Cc1ccc2c(c1)c1c(n2C2=C(c3ccncc3)CCC2)CCN(C)C1
71

QUERY: Fill in: Percentage inhibition of ligand binding, Adrenergic α2B (0.1 μM) of Cc1ccc2c(c1)c1c(n2CC(C)(O)c2ccc(O)cc2)CCN(C)C1 (centres unmarked) is ___
RESULT: 103

QUERY: Now this one: C/C(=C\n1c2c(c3cc(Cl)ccc31)CN(C)CC2)c1ccncc1
RESULT: 97

QUERY: Now consider C/C(=C\n1c2c(c3cc(C)ccc31)CN(C)CC2)c1cnc(N(C)C)nc1 and answer again.
RESULT: 98

QUERY: Next up: Cc1ccc2c(c1)c1c(n2C2=C(c3ccc4c(ccn4C)c3)CCC2)CCN(C)C1
RESULT: 99
